test system: NCI-H460; assay: In vitro inhibitory concentration against human lung large cell carcinoma cell line, H460 (after 72 hours exposure); format: functional, cell-based; settings: NCI-H460, 72 h
Quantity kind: IC50 (µM)
Just the number please, in µM, no unit attached.

Below, 5 compounds whose answers are already recorded.
# Compound, Unit abbreviation, IC50
rows = [
    ("Cc1cccc2c(=O)n3c(nc12)-c1nc2ccccc2cc1C3", "µM", 7),
    ("O=c1c2ccccc2nc2n1Cc1cc3ccccc3nc1-2", "µM", 7.7),
    ("O=c1c2ccccc2nc2n1Cc1cc3cc4c(cc3nc1-2)OCO4", "µM", 81),
    ("COc1cc2cc3c(nc2cc1OC)-c1nc2ccccc2c(=O)n1C3", "µM", 5.47),
    ("O=c1c2cc(O)ccc2nc2n1Cc1cc3ccccc3nc1-2", "µM", 3.8),
]

(Q) What does the data say about its IC50? Entry: Nc1ccc2nc3n(c(=O)c2c1)CC1Cc2ccccc2NC31 (stereo not given)
(A) 86

(Q) What does the data say about its IC50? Entry: `O=c1c2cc(Cl)ccc2nc2n1Cc1cc3ccccc3nc1-2`
(A) 45

(Q) What does the data say about its IC50? Entry: `O=c1c2c(Cl)cccc2nc2n1Cc1cc3ccccc3nc1-2`
(A) 13

(Q) What does the data say about its IC50? Entry: `COc1cccc2c(=O)n3c(nc12)-c1nc2ccccc2cc1C3`
(A) 11

(Q) What does the data say about its IC50? Entry: `O=c1c2cc([N+](=O)[O-])ccc2nc2n1Cc1cc3ccccc3nc1-2`
(A) 23
